- SUBJECT OF TEST: Recombinant human c-KIT kinase (Homo sapiens (Human))
- Sequence (P10721 26-976): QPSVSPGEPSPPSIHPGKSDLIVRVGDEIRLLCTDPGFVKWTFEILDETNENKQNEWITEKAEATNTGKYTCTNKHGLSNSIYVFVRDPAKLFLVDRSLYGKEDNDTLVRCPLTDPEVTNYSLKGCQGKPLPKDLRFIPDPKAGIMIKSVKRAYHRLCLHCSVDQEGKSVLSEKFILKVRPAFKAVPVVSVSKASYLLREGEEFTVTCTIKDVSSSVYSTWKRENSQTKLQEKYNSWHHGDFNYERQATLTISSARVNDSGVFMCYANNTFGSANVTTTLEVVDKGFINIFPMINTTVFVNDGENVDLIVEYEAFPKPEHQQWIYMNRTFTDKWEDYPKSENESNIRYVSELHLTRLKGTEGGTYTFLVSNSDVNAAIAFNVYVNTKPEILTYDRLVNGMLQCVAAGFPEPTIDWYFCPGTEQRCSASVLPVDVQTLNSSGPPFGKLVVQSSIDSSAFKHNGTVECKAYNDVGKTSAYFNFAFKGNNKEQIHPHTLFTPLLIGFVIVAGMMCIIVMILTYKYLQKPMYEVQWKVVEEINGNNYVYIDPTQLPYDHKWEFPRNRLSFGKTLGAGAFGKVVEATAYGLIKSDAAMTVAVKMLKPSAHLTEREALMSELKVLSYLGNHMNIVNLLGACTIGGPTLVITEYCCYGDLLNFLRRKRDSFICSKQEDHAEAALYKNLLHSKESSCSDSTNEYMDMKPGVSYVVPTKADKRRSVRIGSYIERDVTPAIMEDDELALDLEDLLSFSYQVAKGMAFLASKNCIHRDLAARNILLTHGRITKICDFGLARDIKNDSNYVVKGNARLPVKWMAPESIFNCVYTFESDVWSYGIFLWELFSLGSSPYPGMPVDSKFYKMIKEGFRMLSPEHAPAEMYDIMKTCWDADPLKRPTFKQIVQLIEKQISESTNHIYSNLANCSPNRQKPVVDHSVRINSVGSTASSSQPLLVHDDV
- ASSAY NOTES: c-KIT kinase chemiluminescence assay (ADP-Glo)
- CONDITION DESCRIPTION: ATP 50 μM
Listing of recorded IC50 by entry.
MEASUREMENT TYPE: IC50

INSERT INTO measurements (compound_string, subject_of_test, measurement_type, obs_value) VALUES
  ('Cc1ccc(-c2noc([C@H]3C[C@@H]3F)n2)cc1NC(=O)c1cnc(-c2cccc3[nH]c(=O)[nH]c23)o1', 'Recombinant human c-KIT kinase (Homo sapiens (Human))', 'IC50', '100 to 1000 nM'),
  ('Cc1ncc(-c2noc([C@H]3C[C@](O)(C(F)(F)F)C3)n2)cc1NC(=O)c1cnn2ccc(N3CC4(C3)CC(O)(C(F)F)C4)cc12', 'Recombinant human c-KIT kinase (Homo sapiens (Human))', 'IC50', '100 to 1000 nM'),
  ('Cc1ccc(-c2noc([C@H]3C[C@@H]3F)n2)cc1NC(=O)c1cnn2ccc(Cl)cc12', 'Recombinant human c-KIT kinase (Homo sapiens (Human))', 'IC50', '< 100 nM'),
  ('Cc1ncc(-c2ncc(OC(F)(F)F)cn2)cc1NC(=O)c1cnc(-c2ccc3c(c2)CC(=O)N3)o1', 'Recombinant human c-KIT kinase (Homo sapiens (Human))', 'IC50', '> 1000 nM');

Hey, just so you know, these numbers are from patent US20250059174A1.
